System: MCF7
Test: Anticancer activity against human MCF7 cells assessed as inhibition of cell growth
Type: functional, cell-based
pIC50: −log10 of the molar value.
So basically: pIC50 at 5 or higher? That is satisfied. Lower than 5? That is not satisfied.

smiles_string: COc1ccc(-c2coc3ccccc3c2=O)cc1
group: not satisfied
--
smiles_string: Oc1ccc(-c2nc3cc(F)ccc3s2)cc1O
group: satisfied
--
smiles_string: Oc1ccc(-c2nc3ccc(Br)cc3s2)cc1
group: satisfied
--
smiles_string: COc1ccc(-c2cc(=O)c3ccc(F)cc3o2)cc1OC
group: not satisfied
--
smiles_string: COc1ccc(-c2coc3cc(F)ccc3c2=O)cc1OC
group: not satisfied

###

We begin with a simple list: items and their reported activity at 0.25 h, 0.1 µM.
Biological target: CYP1A1 (Homo sapiens, UniProt P04798)
Sequence (P04798 whole entry): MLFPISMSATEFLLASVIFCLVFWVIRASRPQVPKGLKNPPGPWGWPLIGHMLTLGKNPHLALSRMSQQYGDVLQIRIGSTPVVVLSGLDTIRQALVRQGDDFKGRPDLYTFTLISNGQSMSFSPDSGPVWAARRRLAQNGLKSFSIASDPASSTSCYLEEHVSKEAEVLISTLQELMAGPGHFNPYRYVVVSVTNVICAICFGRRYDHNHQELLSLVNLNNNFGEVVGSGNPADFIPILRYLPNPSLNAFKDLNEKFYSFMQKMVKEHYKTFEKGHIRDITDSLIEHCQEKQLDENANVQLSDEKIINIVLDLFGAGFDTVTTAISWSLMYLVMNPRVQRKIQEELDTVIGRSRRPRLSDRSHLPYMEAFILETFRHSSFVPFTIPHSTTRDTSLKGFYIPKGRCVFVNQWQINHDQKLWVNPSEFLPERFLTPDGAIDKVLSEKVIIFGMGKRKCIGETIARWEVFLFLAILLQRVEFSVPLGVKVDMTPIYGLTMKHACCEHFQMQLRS
Assay: Inhibition of recombinant CYP1A1 (unknown origin) assessed as residual enzyme activity using 7-ethoxyresorufin as substrate at 0.1 uM incubated for 15 mins by resorufin dye based spectrofluorimetry (reference value: 100%)
Format: ADME
Details: recombinant CYP1A1, probe 7-ethoxyresorufin, read-out: Activity

smiles_string: Cc1ccc(-c2cc3cc(F)ccc3[nH]2)cc1N
uom: %
activity at 0.25 h, 0.1 µM: 52.6
//
smiles_string: NC(=O)c1c(NC(=O)Cc2ccc(F)cc2)sc2c1CCCC2
uom: %
activity at 0.25 h, 0.1 µM: 102
//
smiles_string: Cc1cc(C)cc(O[C@H](C)C(=O)Nc2ccc(F)c([N+](=O)[O-])c2)c1
uom: %
activity at 0.25 h, 0.1 µM: 93.5
//
smiles_string: Cc1cc(C)n(C(=O)CCn2nc(C)c(Cl)c2C)n1
uom: %
activity at 0.25 h, 0.1 µM: 62.2
//
smiles_string: Cc1cc(C)n(C(=O)CNc2ccccc2Cl)n1
uom: %
activity at 0.25 h, 0.1 µM: 100

###

Molecular target: CYP1A1 (Homo sapiens)
Experiment: Inhibition of recombinant CYP1A1 (unknown origin) assessed as residual enzyme activity using 7-ethoxyresorufin as substrate at 100 uM incubated for 15 mins by resorufin dye based spectrofluorimetry (reference value: 100%)
Assay type: ADME
Settings: recombinant CYP1A1, probe 7-ethoxyresorufin, read-out: Activity
We begin with a simple list: items and their reported activity at 0.25 h, 100 µM.
recorded_metric: activity at 0.25 h, 100 µM (%)

smiles_string: Cc1cc(C)n2ncc(C(=O)NCc3ccc(Cl)cc3)c2n1
recorded_metric: activity at 0.25 h, 100 µM
number: 50.8
//
smiles_string: Nc1cc(-c2cc3cc(F)ccc3[nH]2)ccc1F
recorded_metric: activity at 0.25 h, 100 µM
number: 17.5
//
smiles_string: Cc1cc(C)n(C(=O)CCn2nc(C)c(Cl)c2C)n1
recorded_metric: activity at 0.25 h, 100 µM
number: 35.1
//
smiles_string: Cc1sc2[nH]c(CNc3ccc(F)cc3)nc(=O)c2c1C
recorded_metric: activity at 0.25 h, 100 µM
number: 9.07
//
smiles_string: Cc1nn(C[C@@H](O)COc2ccc3c(C)cc(=O)oc3c2)c(C)c1C
recorded_metric: activity at 0.25 h, 100 µM
number: 103

###

We begin with a simple list: items and their reported GI50.
Test system: MDA-MB-468
Experiment: Anticancer activity against human MDA-MB-468 cells assessed as inhibition of cell growth incubated for 48 hrs by SRB assay
Format: functional

smiles_string: Cc1ccc(-c2cc3cc(F)ccc3[nH]2)cc1N
GI50: > 100 µM
--
smiles_string: Cc1ccc(-c2cc(C(N)=O)c3cc(Cl)ccc3n2)o1
GI50: > 100 µM
--
smiles_string: C[C@H](Oc1ccc(Cl)cc1)C(=O)Nc1sc2c(c1C(N)=O)CCCC2
GI50: > 100 µM
--
smiles_string: Cc1cc(C)n(C(=O)CCn2nc(C)c(Cl)c2C)n1
GI50: > 100 µM
--
smiles_string: Cc1sc2[nH]c(CNc3ccc(F)cc3)nc(=O)c2c1C
GI50: > 100 µM

###

Molecular target: CYP1A1 (Homo sapiens, UniProt P04798)
Assay: Inhibition of recombinant CYP1A1 (unknown origin) assessed as residual enzyme activity using 7-ethoxyresorufin as substrate at 10 uM incubated for 15 mins by resorufin dye based spectrofluorimetry (reference value: 100%)
Assay type: ADME
Conditions: recombinant CYP1A1, probe 7-ethoxyresorufin, read-out: Activity

smiles_string: Cc1cc(C)n(C(=O)CCn2nc(C)c(Cl)c2C)n1
uom: %
activity at 0.25 h, 10 µM: 50.6

smiles_string: NC(=O)c1c(NC(=O)Cc2ccc(F)cc2)sc2c1CCCC2
uom: %
activity at 0.25 h, 10 µM: 102

smiles_string: Cc1cc(C)cc(O[C@H](C)C(=O)Nc2ccc(F)c([N+](=O)[O-])c2)c1
uom: %
activity at 0.25 h, 10 µM: 95.7

###

Target: CYP1A1 (Homo sapiens, UniProt P04798)
Test: Inhibition of recombinant CYP1A1 (unknown origin) assessed as residual enzyme activity using 7-ethoxyresorufin as substrate at 50 uM incubated for 15 mins by resorufin dye based spectrofluorimetry (reference value: 100%)
Type: ADME
Conditions: recombinant CYP1A1, probe 7-ethoxyresorufin, read-out: Activity
recorded_metric: activity at 0.25 h, 50 µM (%)

smiles_string: Cc1nn(C[C@@H](O)COc2ccc3c(C)cc(=O)oc3c2)c(C)c1C
target_or_system: CYP1A1 (Homo sapiens, UniProt P04798)
number: 101

smiles_string: Cc1ccc(-c2cc(C(N)=O)c3cc(Cl)ccc3n2)o1
target_or_system: CYP1A1 (Homo sapiens, UniProt P04798)
number: 100

smiles_string: Cc1cc(C)cc(O[C@H](C)C(=O)Nc2ccc(F)c([N+](=O)[O-])c2)c1
target_or_system: CYP1A1 (Homo sapiens, UniProt P04798)
number: 96.6

smiles_string: Cc1cc(C)n(C(=O)CNc2ccccc2Cl)n1
target_or_system: CYP1A1 (Homo sapiens, UniProt P04798)
number: 104

smiles_string: Cc1cc(C)n(C(=O)CCn2nc(C)c(Cl)c2C)n1
target_or_system: CYP1A1 (Homo sapiens, UniProt P04798)
number: 36.4

smiles_string: Nc1cc(-c2cc3cc(F)ccc3[nH]2)ccc1F
target_or_system: CYP1A1 (Homo sapiens, UniProt P04798)
number: 18.3

smiles_string: C[C@H](Oc1ccc(Cl)cc1)C(=O)Nc1sc2c(c1C(N)=O)CCCC2
target_or_system: CYP1A1 (Homo sapiens, UniProt P04798)
number: 97.4

Data provenance: ChEMBL document CHEMBL5257023
